test: CCTE_Padilla_ZF_Score.Edema: CCTE's 144 Hour Post-fertilization zebrafish Assay Score for Edema Malformation, Padilla Lab (AID 2284406)
Activity calls are given as the source filed them. How the source made its calls: active means hit-call score of the fitted dose curve at least 0.9, where 1 is the maximum; inactive means score below 0.9.
In this exercise, the only acceptable responses are active, inactive

Asked: For this compound, state the assay outcome: "NS(=O)(=O)C(F)(F)C(F)(F)C(F)(F)C(F)(F)C(F)(F)C(F)(F)C(F)(F)C(F)(F)F"
Given back: active

Asked: For this compound, state the assay outcome: "O=C(O)C(F)(F)C(F)(F)C(F)(F)C(F)(F)C(F)(F)C(F)(F)C(F)(F)C(F)(F)C(F)(F)F"
Given back: inactive

Asked: For this compound, state the assay outcome: "O=S(=O)(O)C(F)(F)C(F)(F)C(F)(F)C(F)(F)F"
Given back: inactive

Asked: For this compound, state the assay outcome: "O=C(O)C(F)(F)C(F)(F)C(F)(F)C(F)(F)C(F)(F)C(F)(F)C(F)(F)C(F)(F)F"
Given back: active

###

test: CCTE_Deisenroth_AIME_384WELL_CTox_Inactive: Cytotoxicity Assessment (CTOX) in CCTE's 384-well Estrogen Receptor Transactivation Assay without AIME metabolic competence (metabolism negative), Deisenroth Lab (AID 2284039);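 further: cell viability via live-cell protease substrate cleaved to fluorescent probe; cells exposed 24 h to medium preincubated 2 h with alginate-water beads without S9; loss of fluorescence signal means loss of viability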
Records with an inconclusive call do not appear. Calls of active or inactive are those of the source. The calls were made as follows: active = hit-call score of the fitted dose curve at least 0.9, where 1 is the maximum; inconclusive = response in the unintended direction; inactive = score below 0.9.
PARAMETER: AC50

ClC1=C(Cl)[C@]2(Cl)[C@@H]3[C@H]4C[C@H]([C@@H]5O[C@H]45)[C@@H]3[C@@]1(Cl)C2(Cl)Cl | inactive
c1ccc(-c2ccccc2)cc1 | inactive
Cc1cccc([N+](=O)[O-])c1 | inactive
O=C(O)C(F)(F)C(F)(F)C(F)(F)C(F)(F)C(F)(F)C(F)(F)C(F)(F)C(F)(F)F | 164 µM (active)

###

Experiment: TOX21_p53_BLA_p4_viability: Viability Assessment in the Tox21 HCT-116 p53 Agonism Beta-lactamase Assay, Phase 4 (AID 2283597);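 further: hits lower the luminescence signal meaning cytotoxicity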
Description: TOX21_p53_BLA_p4 is a cell-based, single-readout assay that uses HCT116, a human intestinal cell line, […] in a 1536-well plate.TOX21_p53_BLA_p4_viability is an assay readout measuring cellular ATP content and detected with CellTiter-Glo Luciferase-coupled ATP quantitation.TOX21_p53_BLA_p4_viability used a type of viability reporter where loss-of-signal activity can be used to understand changes in the cell viability. […]
Inconclusive results are not listed. Calls of active or inactive are those of the source. Rule for the calls: active = hit-call score of the fitted dose curve at least 0.9, where 1 is the maximum; inconclusive = response in the unintended direction; inactive = score below 0.9.
In this exercise, the only acceptable responses are active, inactive

Asked: For this compound, state the assay outcome: "Nc1ccc(-c2ccc(N)cc2)cc1"
Given back: inactive

Asked: For this compound, state the assay outcome: "Cc1cccc(C)c1N"
Given back: inactive

Asked: For this compound, state the assay outcome: "COc1ccc(O)c(C(C)(C)C)c1"
Given back: inactive

Asked: For this compound, state the assay outcome: "O=C(O)C(F)(F)C(F)(F)C(F)(F)C(F)(F)C(F)(F)C(F)(F)C(F)(F)C(F)(F)F"
Given back: active

Asked: For this compound, state the assay outcome: "Cc1cc(O)ccc1Cl"
Given back: inactive

Asked: For this compound, state the assay outcome: "c1cc2ccc3cccc4ccc(c1)c2c34"
Given back: inactive

Asked: For this compound, state the assay outcome: "O=NN(c1ccccc1)c1ccccc1"
Given back: inactive

Asked: For this compound, state the assay outcome: "CCCCCCCCCc1ccc(O)cc1"
Given back: inactive

Asked: For this compound, state the assay outcome: "COS(=O)(=O)OC"
Given back: inactive

Asked: For this compound, state the assay outcome: "CCCN(CCC)N=O"
Given back: inactive

Asked: For this compound, state the assay outcome: "Cc1cccc([N+](=O)[O-])c1"
Given back: inactive

Asked: For this compound, state the assay outcome: "O=C(NC(=O)c1c(F)cccc1F)Nc1cc(Cl)c(OC(F)(F)C(F)F)c(Cl)c1"
Given back: inactive

Asked: For this compound, state the assay outcome: CC(C)C(=O)OCC(C)(C)C(OC(=O)C(C)C)C(C)C (stereo unspecified)
Given back: inactive

Asked: For this compound, state the assay outcome: "Clc1ccc(Cl)cc1"
Given back: inactive

Asked: For this compound, state the assay outcome: "ClC1=C(Cl)[C@]2(Cl)[C@@H]3[C@@H]4C[C@@H]([C@H]5O[C@@H]45)[C@@H]3[C@@]1(Cl)C2(Cl)Cl"
Given back: inactive

Asked: For this compound, state the assay outcome: "Oc1c(Cl)c(Cl)c(Cl)c(Cl)c1Cl"
Given back: inactive

Asked: For this compound, state the assay outcome: "C=CC(=O)NCNC(=O)C=C"
Given back: inactive

Asked: For this compound, state the assay outcome: "CC#Cc1cc(C)nc(Nc2ccccc2)n1"
Given back: inactive

Asked: For this compound, state the assay outcome: "O=C(NC(=O)c1cc(F)c(F)cc1Cl)Nc1cc(F)ccc1N1CCC(C(=O)O)CC1"
Given back: inactive

Asked: For this compound, state the assay outcome: "Cc1cc(-c2ccc(N)c(C)c2)ccc1N"
Given back: inactive

Asked: For this compound, state the assay outcome: "NS(=O)(=O)C(F)(F)C(F)(F)C(F)(F)C(F)(F)C(F)(F)C(F)(F)C(F)(F)C(F)(F)F"
Given back: inactive

Asked: For this compound, state the assay outcome: "CC(c1ccc(O)cc1)(c1ccc(O)cc1)c1ccc(O)cc1"
Given back: inactive

Asked: For this compound, state the assay outcome: "OCC(O)CO"
Given back: inactive

Asked: For this compound, state the assay outcome: "O=C(O)C(F)(F)C(F)(F)C(F)(F)C(F)(F)C(F)(F)C(F)(F)C(F)(F)C(F)(F)C(F)(F)F"
Given back: inactive

Asked: For this compound, state the assay outcome: "CO/C=C(/C(=O)OC)c1ccccc1COc1cccc(C(F)(F)F)n1"
Given back: inactive

Asked: For this compound, state the assay outcome: "O=C(N[C@H]1CN2CCC1CC2)c1cc2ccoc2cn1"
Given back: inactive
